Multi-source literature compilation: Ki on Alpha-1B adrenergic receptor (Mesocricetus auratus, UniProt P18841).
Sequence (P18841 whole entry): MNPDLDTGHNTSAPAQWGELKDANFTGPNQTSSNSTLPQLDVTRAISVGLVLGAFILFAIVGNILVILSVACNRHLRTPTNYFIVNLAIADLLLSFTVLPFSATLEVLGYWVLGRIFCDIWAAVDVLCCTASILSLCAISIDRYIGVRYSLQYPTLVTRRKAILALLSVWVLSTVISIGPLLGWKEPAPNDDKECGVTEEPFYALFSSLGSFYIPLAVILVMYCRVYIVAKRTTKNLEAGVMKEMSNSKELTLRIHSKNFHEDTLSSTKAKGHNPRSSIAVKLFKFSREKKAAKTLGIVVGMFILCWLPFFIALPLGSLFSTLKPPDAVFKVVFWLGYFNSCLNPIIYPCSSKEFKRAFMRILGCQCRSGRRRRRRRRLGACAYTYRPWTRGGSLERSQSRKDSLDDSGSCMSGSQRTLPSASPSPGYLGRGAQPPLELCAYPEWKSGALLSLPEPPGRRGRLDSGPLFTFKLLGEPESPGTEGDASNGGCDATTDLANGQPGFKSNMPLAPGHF
reported.endpoint: Ki (nM)

chem.smiles	inequality.sign	result.number
COc1cc2c(cc1OC)C(=O)N(CCN1C[C@@H]3CCc4c(OC)cccc4[C@@H]3C1)CN2	=	95.2
COc1cccc2c1CC[C@H]1CN(CCn3c(=O)[nH]c4c(C)cc(C)cc4c3=O)C[C@@H]21	=	16.3
COc1cccc2c1CC[C@H]1CN(CCn3c(=O)[nH]c4cc(Cl)ccc4c3=O)C[C@@H]21	=	2.71
COc1cccc2c1CC[C@H]1CN(CCn3c(=O)[nH]c4cc(C)c(C)cc4c3=O)C[C@@H]21	=	4.07
COc1cccc2c1CC[C@H]1CN(CCn3c(=O)[nH]c4cc(C#N)ccc4c3=O)C[C@@H]21	=	1.56
Cc1ccc(N(CC2=NCCN2)c2cccc(O)c2)cc1	=	18
COc1cc2c(cc1OC)NC(=O)N(CCN1C[C@@H]3CCc4c(OC)cccc4[C@@H]3C1)C2	=	191
Cc1cc2c(cc1Cl)N(C(=O)Nc1ccc(Oc3cccnc3C)nc1)CC2	>	10000
COc1cccc2c1CC[C@H]1CN(CCn3c(=O)[nH]c4ncccc4c3=O)C[C@@H]21	=	3.31
COc1cc2[nH]c(=O)n(CCN3C[C@@H]4CCc5c(OC)cccc5[C@@H]4C3)c(=O)c2s1	=	0.74

----------
Multi-source literature compilation: Ki on Alpha-1B adrenergic receptor (Mesocricetus auratus, UniProt P18841).

molecule	system.name	value.units	Ki
COc1ccc2c(=O)n(CCN3C[C@@H]4CCc5c(OC)cccc5[C@@H]4C3)c(=O)[nH]c2c1	Alpha-1B adrenergic receptor (Mesocricetus auratus, UniProt P18841)	nM	0.66
COC(=O)[C@@H]1[C@H]2C[C@H]3c4[nH]c5ccccc5c4CCN3C[C@@H]2CC[C@@H]1O	Alpha-1B adrenergic receptor (Mesocricetus auratus, UniProt P18841)	nM	670
COc1cccc2c1CC[C@H]1CN(CCn3c(=O)[nH]c4cccnc4c3=O)C[C@@H]21	Alpha-1B adrenergic receptor (Mesocricetus auratus, UniProt P18841)	nM	8.2
COc1cccc2c1CC[C@H]1CN(CCn3c(=O)[nH]c4cc(-c5ccccc5)sc4c3=O)C[C@@H]21	Alpha-1B adrenergic receptor (Mesocricetus auratus, UniProt P18841)	nM	11.3
COc1cccc2c1CC[C@H]1CN(CCn3c(=O)[nH]c4c(OC)cccc4c3=O)C[C@@H]21	Alpha-1B adrenergic receptor (Mesocricetus auratus, UniProt P18841)	nM	2.27
COc1cc2[nH]c(=O)n(CCN3C[C@@H]4CCc5c(OC)cccc5[C@@H]4C3)c(=O)c2cc1OC	Alpha-1B adrenergic receptor (Mesocricetus auratus, UniProt P18841)	nM	6.46
COC(=O)c1cc2[nH]c(=O)n(CCN3C[C@@H]4CCc5c(OC)cccc5[C@@H]4C3)c(=O)c2s1	Alpha-1B adrenergic receptor (Mesocricetus auratus, UniProt P18841)	nM	3.37
COc1cccc(OC)c1OCCNC[C@@H]1Oc2ccccc2O[C@H]1c1ccc(C)cc1	Alpha-1B adrenergic receptor (Mesocricetus auratus, UniProt P18841)	nM	21.1
COc1cccc(OC)c1OCCNCC1Oc2ccccc2OC1c1ccccc1 (configuration not stated)	Alpha-1B adrenergic receptor (Mesocricetus auratus, UniProt P18841)	nM	5.2
COc1cc2ncn(CCN3C[C@@H]4CCc5c(OC)cccc5[C@@H]4C3)c(=O)c2cc1OC	Alpha-1B adrenergic receptor (Mesocricetus auratus, UniProt P18841)	nM	15.3
COc1ccc2[nH]c(=O)n(CCN3C[C@@H]4CCc5c(OC)cccc5[C@@H]4C3)c(=O)c2c1	Alpha-1B adrenergic receptor (Mesocricetus auratus, UniProt P18841)	nM	3.76
COc1cccc2c1CC[C@H]1CN(CCn3c(=O)[nH]c4cc(NC(C)=O)ccc4c3=O)C[C@@H]21	Alpha-1B adrenergic receptor (Mesocricetus auratus, UniProt P18841)	nM	0.84
COc1cc2[nH]c(=O)n(CCN3C[C@@H]4CCc5c(OC)cccc5[C@@H]4C3)c(=O)c2cc1Cl	Alpha-1B adrenergic receptor (Mesocricetus auratus, UniProt P18841)	nM	9.27
COC(=O)c1ccc2c(=O)n(CCN3C[C@@H]4CCc5c(OC)cccc5[C@@H]4C3)c(=O)[nH]c2c1	Alpha-1B adrenergic receptor (Mesocricetus auratus, UniProt P18841)	nM	1.64
COc1cccc(OC)c1OCCNCC1Oc2ccccc2OC1c1ccc(C)cc1 (configuration not stated)	Alpha-1B adrenergic receptor (Mesocricetus auratus, UniProt P18841)	nM	51.4
COc1cccc2c1CC[C@H]1CN(CCn3c(=O)[nH]c4ccncc4c3=O)C[C@@H]21	Alpha-1B adrenergic receptor (Mesocricetus auratus, UniProt P18841)	nM	10.6
COc1cc2nc(N3CCN(C(=O)c4ccco4)[C@H]4CCCC[C@H]43)nc(N)c2cc1OC	Alpha-1B adrenergic receptor (Mesocricetus auratus, UniProt P18841)	nM	0.309
